target.system: T1, human TPBG antigen immobilized on a CM5 chip (human, UniProt Q13641 32-355, limits assumed)
T1 sequence (looked up): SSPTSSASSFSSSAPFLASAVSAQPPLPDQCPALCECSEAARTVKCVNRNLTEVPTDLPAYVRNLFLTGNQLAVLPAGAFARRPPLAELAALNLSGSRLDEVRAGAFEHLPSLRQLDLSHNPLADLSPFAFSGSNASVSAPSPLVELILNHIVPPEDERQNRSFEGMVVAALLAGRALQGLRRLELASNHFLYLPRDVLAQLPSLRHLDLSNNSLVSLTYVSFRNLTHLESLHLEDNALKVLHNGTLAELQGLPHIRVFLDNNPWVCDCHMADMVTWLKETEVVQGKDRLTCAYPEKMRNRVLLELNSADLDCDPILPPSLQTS
measurement.description: SPR (Biacore), human TPBG antigen immobilized on CM5 chip
recorded.metric: Kd (nM)
Kindly answer with a numeric value in nM, unit omitted.

See these solved cases before continuing.
Humanized antibody 12B12-16 (antibody, V domains shown, also called h12B12-16) VH: EVQLVESGGGVVQPGRSLRLSCAASGFTFSNFGMHWVRQAPGKGLEWVAYISSGSTSFYYADTVKGRFTISRDNSKNTLYLQMNSLRAEDTAVYYCSRTNSLLRGFFDAWGQGTTVTVSS VL: DIVLTQTPLSLSVTPGQPASISCRASQSVSSSSYTYLHWYLQKPGQPPQLLIKSASNLESGVPDRFSGSGSGTDFTLKISRVEAEDVGVYYCQHSWEIPLTFGQGTKLEIK : 0.0229
Chimeric antibody 12B12 (antibody, V domains shown, Mouse variable domains on human IgG1 heavy and human kappa light constant regions; also called c12B12; TPBG chimeric antibody 12B12) VH: DVQLVESGGGLVQPGGSRKLSCAASGFTFSNFGMHWVRQAPEKGLEWVAYISSGSTSFYYADTVKGRFTISRDNPKNTLFLQMTSLRSEDTAMYYCSRTNSLLRGFFDAWGAGTTVTVSS VL: DIVLTQSPASLAVSLGQRATISCRASQSVSSSSYTYLHWYQQKPGQPPKLLIKSASNLESGVPARFSGTGSGTDFTLNIHPVEEEDTATYYCQHSWEIPLTFGAGTKLELK : 0.0102
Chimeric antibody 28D4 (antibody, V domains shown, Mouse variable domains on human IgG1 heavy and human kappa light constant regions; also called c28D4; TPBG chimeric antibody 28D4) VH: DVQLVESGGGLVRPGGSLKLSCAASGFTFSNYVMSWARQSPEKRLEWVAEISTGGSHTYYSDTVTGRFTISRDNAKKALYLEMSSLRSEDTAIYYCIMFYYGSSYSMDYWGQGTSVTVSS VL: DIQMTQSTSSLSASLGDRITISCRASQDIRNYLNWYQQKPDGTVKLLIYHTSRLHSGVPSRFSGSGSGTDYSLTISNLEQEDIATYFCQQGDTLPLTFGAGTRLELK : 0.013

Shifting focus to the binder that follows.
// Kd lookup, binder = Humanized antibody 28D4-4 (antibody, V domains shown, also called h28D4-4) VH: EVQLVESGGGLVKPGGSLRLSCAASGFTFSNYVMSWARQAPGKRLEWVAEISTGGSHTYYSDTVTGRFTISRDNAKKSLYLQMNSLRAEDTAVYYCIMFYYGSSYSMDYWGQGTTVTVSS VL: DIQMTQSPSSLSASVGDRVTITCRASQDIRNYLNWYQQKPGKAPKLLIYHTSRLHSGVPSRFSGSGSGTDFTFTISSLQPEDIATYYCQQGDTLPLTFGQGTRLEIK , result: 0.0231
